System: SF-539 CNS
Method: NCI-60 one-dose screen, 48 h (100 = growth as untreated, 0 = no growth, -100 = all killed)
Reported Conditions: 10 µM unless noted
Experimental: Cells are grown in 96 well plates and exposed to the test compound for 48 hours. Compounds are tested at a single concentration, which is 10^-5 M for most compounds. The reported endpoint is percent growth (GI% or GIPRCNT), where numbers from 0 - 100% represent growth inhibition, and numbers from -100% - 0 represent cell death. For example, a value of 40 represents 60% growth inhibition. A value of 0 means no net growth occurred over the course of the experiment. […]
Compounds without any hit were thinned out: in the full panel of roughly 83,000, 20% have a hit.
Reported Endpoint: growth (%)
One number for each entry, in %.

// below: answered molecules
In [3]: df
Out[3]:
                                   molecule  data_value
0  COc1cc(/C=C/C(=O)Nc2ccc3c(c2)/C(=C\c2cccn2C)C(=O)N3)cc(OC)c1OC        56.7
1  COc1cc(/C=C/C(=O)c2ccc(F)cc2)ccc1OCCCCCOc1cc2c(cc1OC)C(=O)N1CCCC1C=N2 (centres undefined)       -67.1
2        CN(C)c1ccc(/C=C\c2ccnc3ccccc23)cc1        78.3
3  O=C(COC(=O)[C@H](C[Se][Se]C[C@H](NC(=O)c1ccc(Br)cc1F)C(=O)OCC(=O)c1ccc(F)cc1)NC(=O)c1ccc(Br)cc1F)c1ccc(F)cc1       -98.5
4  Cn1c(=O)c2c(nc(Br)n2CCC(=O)Nc2ccc(F)cc2)n(C)c1=O        98.7
5  COc1ccc(C(=O)C(C)Br)cc1OC (centres undefined)        92.9

Fill in growth for each of the 2 molecules listed.
1. COc1ccc(Cn2cc3c(c2-c2ccccc2)CCc2cncnc2-3)cc1
2. O=C(CSc1nc2c(n1Nc1ccccc1)-c1ccccc1SC2)Nc1nc(-c2ccc(Cl)cc2)cs1

1. 59.7
2. 70.2

Just so you know, measured growth for CN(CCOc1ccc(CC2SC(=O)NC2=O)cc1)c1ccccn1 (centres undefined) came out at 104

----------
System: MOLT-4 leukemia
Method: NCI-60 one-dose screen, 48 h
Reported Conditions: 10 µM unless noted
Compounds without any hit were thinned out: in the full panel of roughly 83,000, 20% have a hit. Calls of active or inactive are those of the source. The calls were made as follows: active = growth percent below 10; inactive = the rest.
The reply should name one outcome from active, inactive

Compound	Category
CN(C)c1cccc2c(S(=O)(=O)N[C@H]3CC[C@H]4[C@@H]5CCc6cc(O)ccc6[C@H]5CC[C@]34C)cccc12	inactive
COc1cc(C(=O)/C=C/c2cccnc2Nc2ccccc2)cc(OC)c1OC	active

How did this test come out for O=C(Nc1ccncc1)C(=O)c1cn(S(=O)(=O)c2cccc(F)c2)c2ccccc12 ?
inactive

How did this test come out for OC(c1cc(C(F)(F)F)nc2c(C(F)(F)F)cccc12)C1CCCCN1 (stereo not given) ?
inactive

How did this test come out for NC(N)=N/N=C(/c1ccccc1)c1ccc(Cl)cc1 ?
inactive

----------
Test system: DU-145 prostate
Method: NCI-60 one-dose screen, 48 h (100 = growth as untreated, 0 = no growth, -100 = all killed)
Reported Conditions: 10 µM unless noted
This is part of a sample that, as a whole, favours compounds with a hit. Of some 83,000 tested, about 20% had one in any assay.
Reported Endpoint: growth (%)
One number for each entry, in %.

>>> print(df.to_string())
                          molecule  data_value
0  Cc1cc(C(C)(C)C)cc(C)c1CC1=NCCN1         107

Fill in growth for each of the 4 molecules listed.
1. COc1ccc(C(=O)Nc2nc(-c3ccc(Cl)cc3)cs2)cc1
2. O=C1CN(CO)C(=O)CN1CO
3. CCC(O)C(C)(C)C (stereo unspecified)
4. CC(NC(=O)C(C)Oc1ccc(Cl)cc1Cl)C(=O)O (stereo unspecified)

[111, 114, 108, 108]
